Reference source for all entries: patent US11623931B2

- target.entity: aSyn aggregates on PD sections (Homo sapiens)
- Construct: 20 μm frozen sections from amygdala were purchased from an external provider (Tissue Solutions Ltd.); tissue Tissue Solutions Ltd; host or cells: human PD amygdala, frozen sections, Braak stage V-VI
- assay.text: Assay 1 (fluorescence based assay): direct staining of human Parkinson's disease brain sections
- Format: binding
- Parameters: key: − (No); +/− (very weak); + (weak); ++ (good); +++ (strong)
- measurement.parameters: staining intensity; compound 100 μM, frozen amygdala sections, PD Braak stage V-VI
property.name: Staining of aSyn aggregates on PD sections

Worked cases, Staining of aSyn aggregates on PD sections given:
Cn1cc(-c2ccc3sc(-c4ccc(N5CCC[C@H](F)C5)nc4)nc3n2)cn1 : ++
CN1CCN(c2ccc3nc(-c4ccc(N5CCCC5)nc4)sc3c2)C(=O)C1 : ++
COc1ccc(C#Cc2ccc3cc(-c4cccnc4)sc3n2)cc1 : ++
CNc1ccc(-c2ccc3cc(-c4cccc(OC)c4)sc3n2)cc1 : ++

Look up and report measured Staining of aSyn aggregates on PD sections for this entry: Cn1cc(-c2ccc3sc(-c4ccc(N5CC[C@H](F)C5)nc4)nc3c2)cn1 +

Please indicate Staining of aSyn aggregates on PD sections recorded for CNc1ccc(-c2ccc3cc(-c4ccnc(OC)c4)sc3n2)cc1 +

Answer with the recorded Staining of aSyn aggregates on PD sections for the compound listed here: c1cncc(-c2ccc3sc(-c4ccc(N5CCCC5)nc4)nc3c2)c1 +

Write down Staining of aSyn aggregates on PD sections measured for item F[C@H]1CCN(c2ccc(-c3nc4nc(-c5cccnc5)ccc4s3)cn2)C1 ++

Fill in reported Staining of aSyn aggregates on PD sections for this entry: O=C1c2sc(-c3ccc(N4CCCC4)nc3)nc2CCN1CCF +

Return reported Staining of aSyn aggregates on PD sections. Input compound: O=C1c2sc(-c3ccc(N4CC[C@H](F)C4)nc3)nc2CCN1c1cccnc1 ++

Give Staining of aSyn aggregates on PD sections for Fc1ncccc1-c1ccc2sc(-c3ccc(N4CCCC4)nc3)nc2n1 ++

Tell me Staining of aSyn aggregates on PD sections reported for Fc1nc(N2CCCC2)ccc1-c1nc2nc(-c3cccnc3)ccc2s1 ++

Recall and state the measured Staining of aSyn aggregates on PD sections for CNc1ccc(-c2cc3ccc(Nc4ccc5c(c4)OCCO5)nc3s2)cc1 . ++

Read off the recorded Staining of aSyn aggregates on PD sections for F[C@@H]1CCCN(c2ccc(-c3nc4ncc(-c5cccnc5)cc4s3)cn2)C1 ++
